assay: Therapeutic index, ratio of ED50 for induction of sedation in ICR mouse by spontaneous locomotor activity test to ED50 for antinociceptive activity in ICR mouse by acetic acid abdominal constriction test; type: organism-based, Abdomen; conditions: in vivo, read-out: Ratio ED50
MEASURED_ATTRIBUTE: selectivity ratio
I'd appreciate a reply containing only the number, no unit.

# query: selectivity ratio of entry `CN(C(=O)/C=C/c1ccoc1)[C@H]1C[C@@]23CCN(CC4CC4)[C@H]4C=C[C@@H]1C[C@]42Cc1ccc(O)cc13.Cl`
13.1

----------
target: Mu-type opioid receptor (Cavia porcellus, UniProt P97266); assay: Displacement of [3H]DAMGO from MOR in guinea pig cerebellum membranes; assay type: cell membranes, Membrane
Sequence (P97266 whole entry): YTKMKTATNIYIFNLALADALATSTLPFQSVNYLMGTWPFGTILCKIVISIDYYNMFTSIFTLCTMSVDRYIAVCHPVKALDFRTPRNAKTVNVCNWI
MEASURED_ATTRIBUTE: Ki (nM)
A number alone suffices; assume nM.

Solved entries (count: 5):
CN(C(=O)c1ccccc1)[C@@H]1C[C@@]23CCN(CC4CC4)[C@H]4C=C[C@@H]1C[C@]42Cc1ccc(O)cc13
2.7
CN(C(=O)CCc1ccccc1)[C@@H]1C[C@@]23CCN(CC4CC4)[C@H]4C=C[C@@H]1C[C@]42Cc1ccc(O)cc13
0.51
CN(C(=O)Cc1ccccc1)[C@@H]1C[C@@]23CCN(CC4CC4)[C@H]4CCC1C[C@]42Cc1ccc(O)cc13 (single isomer, unassigned)
0.197
CN(C(=O)Cc1ccccc1)[C@H]1C[C@@]23CCN(CC4CC4)[C@H]4C=C[C@@H]1C[C@]42Cc1ccc(O)cc13
12.2
CN(C(=O)CCc1ccccc1)[C@H]1C[C@@]23CCN(CC4CC4)[C@H]4CCC1C[C@]42Cc1ccc(O)cc13 (single isomer, unassigned)
11.5

# query: Ki of entry CN(C(=O)c1ccccc1)[C@@H]1C[C@@]23CCN(CC4CC4)[C@H]4CCC1C[C@]42Cc1ccc(O)cc13 (single isomer, unassigned)
0.28

----------
target: Delta-type opioid receptor (Mus musculus); test: Displacement of [3H]DPDPE from DOR in mouse whole brain membranes without cerebellum; assay type: cell membranes, Membrane
Sequence (P32300 whole entry): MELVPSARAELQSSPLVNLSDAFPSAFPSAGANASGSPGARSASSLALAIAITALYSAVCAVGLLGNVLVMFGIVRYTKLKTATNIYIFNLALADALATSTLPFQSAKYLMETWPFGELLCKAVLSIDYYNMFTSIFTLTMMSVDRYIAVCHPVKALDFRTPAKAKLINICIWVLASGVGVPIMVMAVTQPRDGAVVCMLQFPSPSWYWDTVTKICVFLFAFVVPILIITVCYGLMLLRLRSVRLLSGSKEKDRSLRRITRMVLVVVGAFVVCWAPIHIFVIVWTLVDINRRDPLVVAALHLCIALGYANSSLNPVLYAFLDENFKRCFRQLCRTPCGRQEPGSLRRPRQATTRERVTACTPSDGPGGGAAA
// classify: if (Ki < 4 nM) True else False

CN(C(=O)Cc1ccccc1)[C@H]1C[C@@]23CCN(CC4CC4)[C@H]4CCC1C[C@]42Cc1ccc(O)cc13 (single isomer, unassigned)
False
CN(C(=O)Cc1ccccc1)[C@@H]1C[C@@]23CCN(CC4CC4)[C@H]4C=C[C@@H]1C[C@]42Cc1ccc(O)cc13
True
CN(C(=O)c1ccccc1)[C@H]1C[C@@]23CCN(CC4CC4)[C@H]4CCC1C[C@]42Cc1ccc(O)cc13 (single isomer, unassigned)
True
CN(C(=O)/C=C/c1ccoc1)[C@@H]1C[C@@]23CCN(CC4CC4)[C@H]4CC[C@@H]1C[C@]42Cc1ccc(O)cc13
True

Moving on to another molecule below.
Does the reported Ki of the following molecule sit strictly below 4 nM? `CN(C(=O)/C=C/c1ccoc1)[C@H]1C[C@@]23CCN(CC4CC4)[C@H]4C=C[C@@H]1C[C@]42Cc1ccc(O)cc13.Cl`
False

----------
molecular target: Kappa-type opioid receptor (Mus musculus); test: Displacement of [3H]U69,593 from KOR in mouse whole brain membranes without cerebellum
Recorded measurements of Ki, one per entry
A number alone suffices; assume nM.

Solved entries (count: 5):
CN(C(=O)/C=C/c1ccoc1)[C@H]1C[C@@]23CCN(CC4CC4)[C@H]4C=C[C@@H]1C[C@]42Cc1ccc(O)cc13.Cl
0.82
CN(C(=O)c1ccccc1)[C@@H]1C[C@@]23CCN(CC4CC4)[C@H]4CCC1C[C@]42Cc1ccc(O)cc13 (single isomer, unassigned)
0.543
CN(C(=O)c1ccccc1)[C@@H]1C[C@@]23CCN(CC4CC4)[C@H]4C=C[C@@H]1C[C@]42Cc1ccc(O)cc13
4.46
CN(C(=O)CCc1ccccc1)[C@H]1C[C@@]23CCN(CC4CC4)[C@H]4CCC1C[C@]42Cc1ccc(O)cc13 (single isomer, unassigned)
11.9
CN(C(=O)Cc1ccccc1)[C@@H]1C[C@@]23CCN(CC4CC4)[C@H]4CCC1C[C@]42Cc1ccc(O)cc13 (single isomer, unassigned)
0.136

# query: Ki of entry CN(C(=O)c1ccccc1)[C@H]1C[C@@]23CCN(CC4CC4)[C@H]4CCC1C[C@]42Cc1ccc(O)cc13 (single isomer, unassigned)
13.8

# query: Ki of entry `CN(C(=O)CCc1ccccc1)[C@H]1C[C@@]23CCN(CC4CC4)[C@H]4C=C[C@@H]1C[C@]42Cc1ccc(O)cc13`
1.86

# query: Ki of entry `CN(C(=O)c1ccccc1)[C@H]1C[C@@]23CCN(CC4CC4)[C@H]4C=C[C@@H]1C[C@]42Cc1ccc(O)cc13`
13.1

# query: Ki of entry CN(C(=O)CCc1ccccc1)[C@@H]1C[C@@]23CCN(CC4CC4)[C@H]4CCC1C[C@]42Cc1ccc(O)cc13 (single isomer, unassigned)
0.113

# query: Ki of entry `CN(C(=O)/C=C/c1ccoc1)[C@H]1C[C@@]23CCN(CC4CC4)[C@H]4CC[C@@H]1C[C@]42Cc1ccc(O)cc13`
8.36

# query: Ki of entry CN(C(=O)Cc1ccccc1)[C@H]1C[C@@]23CCN(CC4CC4)[C@H]4CCC1C[C@]42Cc1ccc(O)cc13 (single isomer, unassigned)
11

# query: Ki of entry `CN(C(=O)CCc1ccccc1)[C@@H]1C[C@@]23CCN(CC4CC4)[C@H]4C=C[C@@H]1C[C@]42Cc1ccc(O)cc13`
0.47

----------
molecular target: Kappa-type opioid receptor (Homo sapiens, UniProt P41145); assay: Agonist activity at human KOR expressed in CHO cell membranes by [35S]GTPgammaS binding assay
Sequence (P41145 whole entry): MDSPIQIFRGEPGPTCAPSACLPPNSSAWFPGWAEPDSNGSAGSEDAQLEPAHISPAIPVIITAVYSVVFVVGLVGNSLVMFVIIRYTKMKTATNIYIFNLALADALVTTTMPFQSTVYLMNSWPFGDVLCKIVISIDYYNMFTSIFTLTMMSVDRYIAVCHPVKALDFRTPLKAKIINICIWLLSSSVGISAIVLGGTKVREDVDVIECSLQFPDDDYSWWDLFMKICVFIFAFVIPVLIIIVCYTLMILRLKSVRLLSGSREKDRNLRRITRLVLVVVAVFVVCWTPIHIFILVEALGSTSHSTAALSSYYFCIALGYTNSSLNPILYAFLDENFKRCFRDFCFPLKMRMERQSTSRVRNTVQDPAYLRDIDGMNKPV
MEASURED_ATTRIBUTE: EC50
Numeric answer plus unit only.

# query: EC50 of entry `CN(C(=O)/C=C/c1ccoc1)[C@H]1C[C@@]23CCN(CC4CC4)[C@H]4C=C[C@@H]1C[C@]42Cc1ccc(O)cc13.Cl`
11.8 nM

----------
molecular target: Kappa-type opioid receptor (Mus musculus, UniProt P33534); test: Displacement of [3H]U69,593 from KOR in mouse whole brain membranes without cerebellum
Sequence (P33534 whole entry): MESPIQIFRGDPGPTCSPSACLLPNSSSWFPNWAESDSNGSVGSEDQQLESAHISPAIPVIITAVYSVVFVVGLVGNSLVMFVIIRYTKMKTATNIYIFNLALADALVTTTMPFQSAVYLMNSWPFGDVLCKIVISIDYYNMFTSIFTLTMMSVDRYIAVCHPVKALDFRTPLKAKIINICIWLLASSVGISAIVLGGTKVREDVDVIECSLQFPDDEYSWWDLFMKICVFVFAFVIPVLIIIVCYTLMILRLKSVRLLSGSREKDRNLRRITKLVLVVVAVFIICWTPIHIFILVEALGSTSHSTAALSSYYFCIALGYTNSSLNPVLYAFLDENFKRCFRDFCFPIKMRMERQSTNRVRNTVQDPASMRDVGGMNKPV
MEASURED_ATTRIBUTE: Ki (nM)
A number alone suffices; assume nM.

CN(C(=O)Cc1ccccc1)[C@H]1C[C@@]23CCN(CC4CC4)[C@H]4C=C[C@@H]1C[C@]42Cc1ccc(O)cc13
1.73
CN(C(=O)/C=C/c1ccoc1)[C@@H]1C[C@@]23CCN(CC4CC4)[C@H]4C=C[C@@H]1C[C@]42Cc1ccc(O)cc13
0.23
CN(C(=O)/C=C/c1ccoc1)[C@@H]1C[C@@]23CCN(CC4CC4)[C@H]4CC[C@@H]1C[C@]42Cc1ccc(O)cc13
0.204

Now consider a different compound.
# query: Ki of entry `CN(C(=O)Cc1ccccc1)[C@@H]1C[C@@]23CCN(CC4CC4)[C@H]4C=C[C@@H]1C[C@]42Cc1ccc(O)cc13`
0.24

----------
biological target: Delta-type opioid receptor (Mus musculus); assay: Displacement of [3H]DPDPE from DOR in mouse whole brain membranes without cerebellum
MEASURED_ATTRIBUTE: Ki (nM)
A number alone suffices; assume nM.

Solved entries (count: 3):
CN(C(=O)c1ccccc1)[C@@H]1C[C@@]23CCN(CC4CC4)[C@H]4CCC1C[C@]42Cc1ccc(O)cc13 (single isomer, unassigned)
3.65
CN(C(=O)c1ccccc1)[C@@H]1C[C@@]23CCN(CC4CC4)[C@H]4C=C[C@@H]1C[C@]42Cc1ccc(O)cc13
2.23
CN(C(=O)Cc1ccccc1)[C@H]1C[C@@]23CCN(CC4CC4)[C@H]4C=C[C@@H]1C[C@]42Cc1ccc(O)cc13
4.5

Now consider a different compound.
# query: Ki | item `CN(C(=O)/C=C/c1ccoc1)[C@H]1C[C@@]23CCN(CC4CC4)[C@H]4CC[C@@H]1C[C@]42Cc1ccc(O)cc13` | system: Delta-type opioid receptor (Mus musculus)
19.1

----------
species: Mus musculus; test: Selectivity index, ratio of Ki for DOR in mouse whole brain membranes without cerebellum to Ki for KOR in mouse whole brain membranes without cerebellum; format: cell membranes
MEASURED_ATTRIBUTE: Ratio Ki

CN(C(=O)Cc1ccccc1)[C@H]1C[C@@]23CCN(CC4CC4)[C@H]4C=C[C@@H]1C[C@]42Cc1ccc(O)cc13
2.6

# query: Ratio Ki of entry CN(C(=O)Cc1ccccc1)[C@@H]1C[C@@]23CCN(CC4CC4)[C@H]4CCC1C[C@]42Cc1ccc(O)cc13 (single isomer, unassigned)
8.75

# query: Ratio Ki of entry `CN(C(=O)/C=C/c1ccoc1)[C@@H]1C[C@@]23CCN(CC4CC4)[C@H]4CC[C@@H]1C[C@]42Cc1ccc(O)cc13`
0.89

# query: Ratio Ki of entry CN(C(=O)c1ccccc1)[C@H]1C[C@@]23CCN(CC4CC4)[C@H]4CCC1C[C@]42Cc1ccc(O)cc13 (single isomer, unassigned)
0.092

# query: Ratio Ki of entry CN(C(=O)CCc1ccccc1)[C@H]1C[C@@]23CCN(CC4CC4)[C@H]4CCC1C[C@]42Cc1ccc(O)cc13 (single isomer, unassigned)
2.72

# query: Ratio Ki of entry `CN(C(=O)Cc1ccccc1)[C@@H]1C[C@@]23CCN(CC4CC4)[C@H]4C=C[C@@H]1C[C@]42Cc1ccc(O)cc13`
6.92

Origin of measurements: ChEMBL document CHEMBL3612011
